Read-out record for DNA topoisomerase 2-alpha (Homo sapiens, UniProt P11388): pIC50
pIC50: −log10 of the molar value.
OUTCOME MEASURE: pIC50

INSERT INTO measurements (compound_string, obs_value) VALUES
  ('C=C(C)[C@@H]1CC=C2[C@@H](CC[C@]3(C)[C@@H]([C@H](C)CC(=O)C[C@@H](C)C(=O)OC)CC[C@@]23C)[C@@]1(C)CCC(=O)OC', 4.17);

1: C=C(C)[C@@H]1CC=C2[C@@H](CC[C@]3(C)[C@@H]([C@H](C)C[C@@H]4C[C@@H](C)C(=O)O4)CC[C@@]23C)[C@@]1(C)CCC(=O)OC
2: C=C(C)[C@@H]1CC=C2[C@@H](CC[C@]3(C)[C@@H]([C@H](C)C[C@@H]4C[C@@H](C)C(=O)O4)CC[C@@]23C)[C@@]1(C)CCC(=O)O
// query Between 1 and 2 , which one shows the smaller pIC50 number? Please reply using the label of the selected record.
// result 1
(1: 4.12, 2: 4.37)

All values here come from ChEMBL document CHEMBL1150134.
